The measurements presented in this section are drawn from patent US5932584A.

- assay.target: α1 -Adrenergic receptor
- experiment.description: α1-Adrenergic receptor binding assay ([^3 H] prazosin competition, rat brain cortex membranes)
- experimental.context: rat brain cortex membranes, 0.2 nM [^3 H] prazosin, pH 7.4, 30 min, room temperature; read-out: α1 Binding (Ki)
assay.endpoint: Ki (nM)
One number for each entry, in nM.

As a guide, the following entries are already answered.
[[record]]
compound_structure_string = "COc1ccccc1N1CCN(C[C@H]2CN=C3c4ccccc4N=C(SC)N32)CC1"
assay_target = "α1 -Adrenergic receptor"
assay_endpoint = "Ki"
recorded_number = 1.88

[[record]]
compound_structure_string = "COc1ccccc1N1CCN(C[C@@H]2CN=C3c4ccccc4NC(=O)N32)CC1"
assay_target = "α1 -Adrenergic receptor"
assay_endpoint = "Ki"
recorded_number = 26

[[record]]
compound_structure_string = "COc1ccccc1N1CCN(C[C@H]2CN=C3c4ccccc4NC(=O)N32)CC1"
assay_target = "α1 -Adrenergic receptor"
assay_endpoint = "Ki"
recorded_number = 0.1


Turning now to a further compound:
Tested on α1 -Adrenergic receptor: `COc1ccccc1N1CCN(C[C@@H]2CN=C3c4ccccc4N=C(SC)N32)CC1` . Observed Ki: 554
